# System: EKVX NSCLC
# PROCEDURE TEXT: NCI-60 one-dose screen, 48 h (100 = growth as untreated, 0 = no growth, -100 = all killed)
# CONDITION PARAMETERS: 10 µM unless noted
The panel holds about 83,000 compounds, 20% with a hit somewhere; the sample as a whole holds those more often. Active and inactive are the calls of the source. Rule for the calls: active = growth percent below 10; inactive = the rest.
growth by entry:

Recorded growth, per entry:
{"COMPOUND": "CC(=O)O[C@H]1C(=O)[C@@]2(C)[C@H]([C@H](OC(=O)c3ccccc3)[C@]3(O)C[C@H](OC(=O)[C@H](OC(=O)OC[C@@H]4COC(C)(C)O4)[C@@H](NC(=O)c4ccccc4)c4ccccc4)C(C)=C1C3(C)C)[C@]1(OC(C)=O)CO[C@@H]1C[C@@H]2O", "RECORDED ENDPOINT": "growth", "VAL": "29.1% (inactive)"}
{"COMPOUND": "Oc1c(O)c(Cl)c(Cl)c(Cl)c1Cl", "RECORDED ENDPOINT": "growth", "VAL": "36.6% (inactive)"}
{"COMPOUND": "Cn1cc(-c2csc(-c3cn(CCCCN4CCCCC4)c4ccc(F)cc34)n2)c2cccnc21", "RECORDED ENDPOINT": "growth", "VAL": "89% (inactive)"}
{"COMPOUND": "CC12CCC3C(CCC4=CC(=O)CCC43CF)C1CCC2=O (stereo not given)", "RECORDED ENDPOINT": "growth", "VAL": "94.8% (inactive)"}

Using known records, supply growth for `CCOC(=O)[C@@H](C)C[C@H](Cc1ccccc1)NC(=O)c1csc([C@@H](C[C@H](C(C)C)N(C)C(=O)[C@@H](NC(=O)[C@H]2CCCCN2C)C(C)(C)C)OC(C)=O)n1` 31.5% (inactive)

Using known records, supply growth for `O=C(N/N=C\c1ccc(N(CCCl)CCCl)cc1Cl)c1cccnc1` 103% (inactive)

Using known records, supply growth for `CC1(C)C(C(=O)c2cn(CCCCF)c3ccccc23)C1(C)C` 88.7% (inactive)

Using known records, supply growth for CC(C)=CC1C(C(=O)OCc2cccc(Oc3ccccc3)c2)C1(C)C (stereo not given) 82.4% (inactive)

Using known records, supply growth for `CCCCCCCC[n+]1ccc2ccccc2c1` 75.3% (inactive)

Using known records, supply growth for CCOC(=O)C(Cc1ccc(N(CCCl)CCCl)cc1)NC(=O)C(CC(C)C)NC(C)=O (stereo not given) 114% (inactive)

Using known records, supply growth for `CC(=O)Nc1nc2c(s1)CC[C@@]1(C)C2=CC[C@H]2[C@@H]3CC[C@H](O)[C@@]3(C)CC[C@@H]21` 92.5% (inactive)

Using known records, supply growth for CC(C)OC(=O)[C@H](C)NP(=O)(Oc1ccccc1)C1CCCN(O)C1=O (stereo not given in full) 93.4% (inactive)

---

# System: OVCAR-5 ovarian
# PROCEDURE TEXT: NCI-60 one-dose screen, 48 h (100 = growth as untreated, 0 = no growth, -100 = all killed)
# CONDITION PARAMETERS: 10 µM unless noted
# Experimental: Growth inhibition of the OVCAR-5 human tumor cell line is measured as a screen for anti-cancer activity. Cells are grown in 96 well plates and exposed to the test compound for 48 hours. Compounds are tested at a single concentration, which is 10^-5 M for most compounds. The reported endpoint is percent growth (GI% or GIPRCNT), where numbers from 0 - 100% represent growth inhibition, and numbers from -100% - 0 represent cell death. For example, a value of 40 represents 60% growth inhibition. […]
This is part of a sample that, as a whole, favours compounds with a hit. Of some 83,000 tested, about 20% had one in any assay.
growth by entry:
Unit % implied. Number only.

Recorded growth, per entry:
{"LINE NOTATION": "O=C(Nc1ccc([N+](=O)[O-])cc1)C(Cl)(Cl)Cl", "growth / %": 95.6}
{"LINE NOTATION": "CCOC(=O)[C@@H](C)C[C@H](Cc1ccccc1)NC(=O)c1csc([C@@H](C[C@H](C(C)C)N(C)C(=O)[C@H](CC)NC(=O)[C@H]2CCCCN2C)OC(C)=O)n1", "growth / %": 31.5}
{"LINE NOTATION": "COc1cccc2c1c(C(=O)C(=O)Nc1ccn[nH]1)cn2Cc1ccc(F)cc1", "growth / %": 91.2}
{"LINE NOTATION": "Brc1ccc2c(c1)c(-c1nc(-c3c[nH]c4ncccc34)cs1)cn2CCN1CCOCC1", "growth / %": 76.9}
{"LINE NOTATION": "ClCCN(CCCl)Cc1ccc(Nc2ccnc3cc(Cl)ccc23)cc1", "growth / %": 74.1}

Using known records, supply growth for `O=c1[nH]cc(N(CCCl)CCCl)c(=O)[nH]1` 70.1

Using known records, supply growth for `CC[C@H](NC(=O)[C@H]1CCCCN1C)C(=O)N(C)[C@H](C[C@@H](OC(C)=O)c1nc(C(=O)N[C@@H](Cc2ccccc2)C[C@H](C)C(=O)O)cs1)C(C)C` 37.5

---

growth by entry:
# Test system: RPMI-8226 leukemia
# PROCEDURE TEXT: NCI-60 one-dose screen, 48 h (100 = growth as untreated, 0 = no growth, -100 = all killed)
# CONDITION PARAMETERS: 10 µM unless noted
# Procedure: Growth inhibition of the RPMI-8226 human tumor cell line is measured as a screen for anti-cancer activity. Cells are grown in 96 well plates and exposed to the test compound for 48 hours. Compounds are tested at a single concentration, which is 10^-5 M for most compounds. The reported endpoint is percent growth (GI% or GIPRCNT), where numbers from 0 - 100% represent growth inhibition, and numbers from -100% - 0 represent cell death. For example, a value of 40 represents 60% growth inhibition. […]
Compounds without any hit were thinned out: in the full panel of roughly 83,000, 20% have a hit.
Unit % implied. Number only.

Recorded growth, per entry:
{"LINE NOTATION": "CC[C@H](C)[C@H](NC(=O)N[C@@H](C)c1ccccc1)C(=O)N(C)[C@H](C[C@@H](OC(C)=O)c1nc(C(=O)N[C@@H](Cc2ccccc2)C[C@H](C)C(=O)OC)cs1)C(C)C", "growth, %": 16.1}
{"LINE NOTATION": "CC[C@H](C)[C@H](NC(=O)C12CC(NC(C)=O)(C1)C2)C(=O)N(C)[C@H](C[C@@H](OC(C)=O)c1nc(C(=O)N[C@@H](Cc2ccccc2)C[C@H](C)C(=O)OC)cs1)C(C)C", "growth, %": 6.56}
{"LINE NOTATION": "Cn1cc(-c2csc(-c3cn(CCN4CCOCC4)c4ccc(F)cc34)n2)c2cccnc21", "growth, %": 0.0619}

Using known records, supply growth for `O=C(O)CNC(=O)C(Cl)(Cl)Cl` 92.3

---

# System: SF-268 CNS
# PROCEDURE TEXT: NCI-60 one-dose screen, 48 h
# CONDITION PARAMETERS: 10 µM unless noted
Compounds without any hit were thinned out: in the full panel of roughly 83,000, 20% have a hit. Activity calls are given as the source filed them. The calls were made as follows: active = growth percent below 10; inactive = the rest.
Mark one answer only. Choices: Yes for active, No for inactive

For orientation, consider the following solved cases.
{"COMPOUND": "CC(=O)O[C@H]1CC[C@]2(C)[C@H]3CC[C@]4(C)[C@@H](OC(C)=O)CC[C@H]4[C@@H]3[C@@H](C)[C@]2(O)C1", "SYSTEM UNDER TEST": "SF-268 CNS", "CATEGORY": "No"}
{"COMPOUND": "CC(=O)OC[C@]1(C)C=C2C(=O)[C@](C)(O)C3(CC3)C(C)=C2[C@H]1O", "SYSTEM UNDER TEST": "SF-268 CNS", "CATEGORY": "Yes"}
{"COMPOUND": "N#Cc1c(Br)n(C2OC(CO)C(O)C2O)c2ncnc(N)c12 (stereo not given)", "SYSTEM UNDER TEST": "SF-268 CNS", "CATEGORY": "No"}
{"COMPOUND": "CCNc1nc(Cl)nc(NCC)n1", "SYSTEM UNDER TEST": "SF-268 CNS", "CATEGORY": "No"}
{"COMPOUND": "COc1cc(NCCCN=C(N)N)c2ncccc2c1", "SYSTEM UNDER TEST": "SF-268 CNS", "CATEGORY": "No"}
{"COMPOUND": "CCCCCCCCC(CO)NCCc1ccccc1 (stereo not given)", "SYSTEM UNDER TEST": "SF-268 CNS", "CATEGORY": "No"}
{"COMPOUND": "Cc1ccc(S(=O)(=O)F)cc1C(=O)O", "SYSTEM UNDER TEST": "SF-268 CNS", "CATEGORY": "No"}
{"COMPOUND": "COc1cc(C=Nc2cccc(Br)c2)ccc1N(CCCl)CCCl", "SYSTEM UNDER TEST": "SF-268 CNS", "CATEGORY": "No"}

What did this assay record as the result for CC12CCC(O)CC1=CCC1C2CCC2(C)C(O)CCC12 (stereo not given) ? No

What did this assay record as the result for C[C@@H]1O[C@@H](O[C@H]2C[C@@H](O)[C@]3(CO)C4C(CC[C@]3(O)C2)[C@@]2(O)CC[C@H](C3=CC(=O)OC3)[C@@]2(C)C[C@H]4O)[C@H](O)[C@H](O)[C@H]1O (stereo not given in full) ? Yes

What did this assay record as the result for `CN(C)C(=O)Oc1ccccc1-c1ccccc1` ? No

What did this assay record as the result for `O=C(c1cccc(O)c1O)c1cn(Cc2ccc(F)cc2)c2cccc(O)c12` ? No

What did this assay record as the result for `O=C1NC(=O)C(=Cc2cccn2CCCCCn2c3ccccc3c(=O)c3ccccc32)C(=O)N1` ? No

What did this assay record as the result for O=C1C=C(N2C3C4CCC(C4)C32)C(=O)C=C1c1ccccc1 (stereo not given) ? No

What did this assay record as the result for `COc1cc2c(cc1OCCCCCn1c(-c3ccco3)nc3ccccc31)N=C[C@@H]1CCCN1C2=O` ? Yes
